Data origin, for the record: PubChem BioAssay

So I've got a bunch of compounds here, and I need their GFP response, % of DMSO values.
Assay: modulators of CIT2-GFP expression in yeast, confirmation, S. cerevisiae, GFP fusion, cherry picks, mother/daughter gates (AID 2274)
Conditions: S. cerevisiae CIT2-GFP strain, flow cytometry, 3 h; at 10 µM; active compounds read high
The figure you give is taken to be in %; do not add the unit.

GFP response, % of DMSO for CCOC(=O)CNc1c(-c2ccc(O)cc2)nc2ccc(Cl)cn12 ?
96.4

Input Cc1ccc(NC(=O)c2ccccc2O)cc1
104

Input O=c1[nH]n(Cc2ccccc2)c2ccccc12
96.4

Input Cc1cc(NCCCN2CCOCC2)n2nc(C)c(-c3ccccc3)c2n1
101

Input Cc1ccc(N2C(=O)C3C4C=CC(CNC(=S)N5CCN(c6ccccc6)CC5)(O4)C3C2=O)cc1 (configuration not stated)
110

Input Cc1cc(C)nc(S/C=C/C(=O)c2ccccc2F)n1
95.2

Input O=C(c1ccccc1F)N1CCN(c2cccc(C(F)(F)F)c2)CC1
95.8
